target: human dopamine D3 receptor (Homo sapiens (Human)); assay: Human D2-like receptor competition binding in HEK cells, D3; settings: HEK cells, hD3; read-out: D3 Ki
Sequence (P35462 whole entry): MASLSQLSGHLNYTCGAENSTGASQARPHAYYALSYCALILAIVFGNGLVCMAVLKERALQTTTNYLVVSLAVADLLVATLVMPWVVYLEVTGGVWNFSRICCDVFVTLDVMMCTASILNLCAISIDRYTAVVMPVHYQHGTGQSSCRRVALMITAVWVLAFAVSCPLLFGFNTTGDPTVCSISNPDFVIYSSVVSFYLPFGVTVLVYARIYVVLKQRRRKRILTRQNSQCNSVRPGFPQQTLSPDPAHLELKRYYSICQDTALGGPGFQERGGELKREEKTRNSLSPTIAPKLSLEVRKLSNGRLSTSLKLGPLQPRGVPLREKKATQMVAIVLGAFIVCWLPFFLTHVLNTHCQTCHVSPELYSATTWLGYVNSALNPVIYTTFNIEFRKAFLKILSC
pKi: −log10 of the molar value.
reportedEndpoint: pKi

1. O=C(NCC(O)CCN1CCN(c2cccc(Cl)c2Cl)CC1)c1ccc2c(c1)Cc1ccccc1-2 (stereo not shown): 8.60
2. O=C(NC/C=C/CN1CCN(c2cccc(Cl)c2Cl)CC1)c1ccc(-c2cccc(=O)[nH]2)cc1: 9.22
3. COc1ccccc1N1CCN(CC(O)CCNC(=O)c2ccc(-c3ccccn3)cc2)CC1 (stereo not shown): 8.55
4. Cc1cccc(-c2ccc(C(=O)NC/C=C/CN3CCN(c4cccc(Cl)c4Cl)CC3)cc2)n1: 8.85
